- Method description: yeast display, Sf9 membrane polyspecificity reagent, FACS + sequencing; frameworks hold sequencing errors
Assay endpoint: polyreactivity (PSR sort gate)

QFQLVDSRGGLVQAGGSLRLSCAASGAIFGGYAMGWYRTAPGKARELVAGSTRSGGSTYYADSVKGRFTISRDNPKNTVYLQMNSLKPEDTAVYYCAVEIQFYRSPRIVRSYDYWGHGTQVTVSS ... low polyreactivity
QVQLVESGGGLVQAGGSLRLSCAASGSTFYHYTMGWYRQAPGKERELVAAITYSGGRTYYADSVKGRFTISRDNAKNTVYLQKNSLKPEDTAVYYCAATYSTPGAGYYHYWGQGTQVTVSS ... high polyreactivity
QVQLVESGGGLVQAGGSLRLSCAASGRIFYYNDMGWYRQAPGKERELVATITIGNSTNYADSVKGRFTISRDNAKNTVYLQMNSLKPEDTAVYYCNADYSDVTTGDWRYENDYWGQGTQVTVSS ... low polyreactivity
QVQLVESGGGLDQAGGTLRLSSAASGSTFYTNAMGWYRQAPGKERELVAAISGSGGSTYYADSVKGRFTISRDNAKNTVYLQMNSLKPEDNAVYYCAARSRYYDTRFDYWGQGTQVTVSS ... low polyreactivity

Then this sequence:
// query What measured polyreactivity (PSR sort gate) goes with QVQLVESGGGLVQAGVSLRLSCAASARSFAWKAMVWYRQAPGKERELVAAITWSGGSTYYADSVKGRFTISRDNGKNTVYFQLNSLKQEDTAVYYCNKLYPYYATHTTRGLDYWGQGTQVTVSS ?
// result high polyreactivity

---

- Method description: yeast display, Sf9 membrane polyspecificity reagent, FACS + sequencing; frameworks hold sequencing errors
Assay endpoint: polyreactivity (PSR sort gate)

QVQLVESGGCLVQAGGSLRLSCAASGRTFPYNVMGWYRQAPGKERELDAGITGSGDSTFYADSVKGRFTISRDNAKNTFYLQMNSLNPDDTSVYYCAARYRTLNDGYIRNYWGQGTQVTVSS ... low polyreactivity
QVQLVESGGGLDQAGGSLRLSCAASGLIFKLYDMGWSRQAPGKERELVATISRGTSTYYADSVKGRFTISRDNAKNTVDLQMNSLKPEDTAVYYCNARLDYGRAFPLFKYISGMYYWGQGTQVTVSS ... low polyreactivity
QVQLVESGGGLVQAGGSLRLSCAASGRTFRRYVMGRYRQAPGKEMEMVARITTSGGNTYYADSVKGRFTISRDNAKITVYLQMNSMKPEVTAVYYCAADFLRTYKEYNLGYWGQGTQVTVSS ... low polyreactivity
QVQLVESGGGLVQAGGSLRLSCAASGFIFGYYAMGWYRQAPGKERELVAAISSGGTTTYYADSVKGRFTISRDNAKNTVYLQMNSLKPEDTAVYYCAKVSQRRVDNSDYDYWGQGTQVTVSS ... high polyreactivity
QVQLVESGGGLVQAGGSLRLSCAASGSTFWVYGMGWYRQAPGKERELVADITSIGGSTYYADSVKGRFTISRDNAKNTVYLQMNSLKPEDTAVYYCAARETWYPYYWMGYWGQGTQVTVSS ... high polyreactivity
QVQLVESGGGLVQAGGSLRLSCAAYGRIFTSYVMGWYRQAPGKERELVAGINSGRRTNYADSVKGRFTISRDNAKNTVYLQMNSLKPEDTAVYYCAKAGYWYKAHYYWGQGTQVTVSS ... high polyreactivity
QVQLVESGGGLVQAGGSLRLSCAASGRTFSHNTMGWYRQAPGKERELVAAITGSGASTYYADSVKGRFTISRDNAKNTVYLQMNSLKPEDTAVYYCAKVSRQSWYEYDSWGQVTQVTVSS ... low polyreactivity
QVQLVESGGGLDQAGGSLRLSCAASGRIFPFNAMGWYRQAAGKERELVASIRSTGGNTYYADSVKGRFTISRDNAKNTVYLQMISLIPEDSAVYYWGQGTQVTVSS ... low polyreactivity
PVQLVESGGGLVQAGGSLLLSCAASGRTFIYYAMGWYRQAPGKERELVAGISRHGGRTYYADSVKGRFTISRDNAKNTVYLQMNSLKPEDTAVYYCNAYPPSGHDYWGQGTQVTVSS ... high polyreactivity
QVQLVESVGGLVQAGGSLRLSCAASGRIIRWYAMGWYRQAPGKERELVAAISGSGGSTYYADSVKGRFTISRDNAKNTVYLQMNSLKPEDTAVYYGAAGYYLRRYYYWGQGTQVTVSS ... high polyreactivity

// query What measured polyreactivity (PSR sort gate) goes with QVQLVESCGGLVQAGGSLRLSCAASGSTFASYAMGWYRQAPGKEREFVAAISRSGGSTYYADSVKGRFTISRDNAKNTVYLQMNSLKPEDTAVYYCAARSPSADEYYYWGQGTQVTVSS ?
// result low polyreactivity

// query Same again, this time with QVQLVESGVGLVQAGRRLRLSCAASGFIFAWNGMGWYRKAPGKERELVAAISWSGGSTYYAVSVKGRFTISRDNEKNTVYLLMNTLKPEETAVYYCYRSWGSRPGSRLEYWGQGTQVTVSS
// result high polyreactivity

// query Same again, this time with QVQLVESGGGLVQAGGSLRLSCAASGSTSANYAMGWYRPAPGKERELVAAISGGARTNYADSVKGRFTISRDNAKNTVYLQMNSLKPEDTAVYYCATDAYYYNLLYLFPRYDYWGQGTQVTVSS
// result low polyreactivity
